System: SW-620 colon
experimental protocol: NCI tumour cell line growth inhibition, 48 h; in the data active = GI50 below about 0.43 µM; inactive = the rest
Labels: active, inactive

1) O=C(Nc1ccc(-n2cc(-c3ccncc3)c(-c3ccc(Cl)c(O)c3)n2)cc1)Nc1cc(C(F)(F)F)cc(C(F)(F)F)c1 : inactive
2) COc1cc(Cl)cc(-c2nn(C(=O)NCCN3CCN(C)CC3)cc2-c2ccncc2)c1 : inactive
3) CC([C@H]1CCC2C3CCC4C[C@@H](NC=O)CC[C@]4(C)C3CC[C@@]21C)N(C)C (stereo not given in full) : inactive
4) COc1ccc2c(c1)nc(N)c1c3cc(OC)c(OC)cc3cn21 : active
5) N#CC1=C(N)OC2=C(COc3ccc(F)cc32)C1c1ccc(Cl)cc1 (stereo not given) : inactive

###

Entries and their TGI
System: NCI/ADR-RES ovarian
experimental protocol: NCI tumour cell line growth inhibition, 48 h
property: TGI (µM)

1. CCN(CC)CCOc1ccc(Nc2ncc3cc(-c4ccc(O)cc4)c(=O)n(C)c3n2)cc1 : 41.5
2. CCCCCCCCCCC(C[N+](C)(C)C/C=C/c1ccccc1)C(O)c1ccccc1 (stereo not given) : 34.6
3. COc1cc(Cl)cc(-c2nn(C(=O)NCCN3CCN(C)CC3)cc2-c2ccncc2)c1 : 88.5

###

Entries and their TGI
Tested on: M14 melanoma
experimental protocol: NCI tumour cell line growth inhibition, 48 h
property: TGI (µM)

1) COc1ccc2c(c1)c(=O)c1c(NCCCN(C)CCCNc3ccc4c(=O)n(CCN(C)C)c(=O)n5c6ccc(OC)cc6c(=O)c3c45)ccc3c(=O)n(CCN(C)C)c(=O)n2c31 : 2.58
2) COc1ccc(CNc2nc3cc(N)cc(N)c3nc2-c2ccccc2)cc1OC : 15.6

###

System: BT-549 breast
experimental protocol: NCI tumour cell line growth inhibition, 48 h
Entries and their TGI
property: TGI (µM)

1) COc1ccc2c(c1)nc(N)c1c3cc(OC)c(OC)cc3cn21 : 15.2
2) COC(=O)c1ccc(CCC2=CC(=O)C(Br)=CC2=O)cc1 : 23.9
3) CCN(CC)c1ccc(/C=c2\nc(-c3ccccc3)n3c2nc2ccccc23)cc1 : 72.2

###

Entries and their TGI
System: SK-MEL-28 melanoma
experimental protocol: NCI tumour cell line growth inhibition, 48 h
property: TGI

1. C/C=C1/CN2[C@@H](C3=C[C@@H]4[C@@H]5N(C3=O)c3ccccc3[C@@]53CCN5C/C(=C/C)[C@@H]4C[C@H]53)C[C@@]34c5ccccc5N5C(=O)CC=C([C@H]1C[C@H]23)[C@H]54 : 3.91 µM
2. CCOC(O)C(F)(F)F (stereo not given) : > 100 µM
3. N#CC(c1nc2ccccc2s1)c1nc(Cl)ncc1Br (stereo not given) : > 100 µM
4. O=C1C(Cl)=C(Oc2ccc([N+](=O)[O-])cc2)C(=O)c2c(O)ccc(O)c21 : > 76.2 µM
5. CC(C)=CCC/C(=C\CC/C(=C\CCc1ccoc1)C(=O)O)C(=O)O : > 100 µM
6. CC(=O)OC(CC(C)C)P1(=O)N(CC(C)(C)C)[C@@H]2CCCC[C@H]2N1CC(C)(C)C (stereo not given in full) : 28.6 µM
7. CC1(C)COCN1COC1CCCCC1 : > 100 µM
8. CC(=O)c1cc2c(s1)C(=O)c1scc(C(C)=O)c1C2=O : 1.59 µM
9. Cn1ccc2c(NCCN)c3c(c(NCCN)c21)C(=O)c1ccccc1C3=O : 36.7 µM
10. N#CCN1CCCCCc2ccccc21 : > 100 µM
11. COC(=O)C1=COC(C)C2C[n+]3ccc4c([nH]c5ccccc54)c3CC12 (stereo not given) : > 100 µM
12. O=C1CCCCCCCC/C=C/CCC(c2ccco2)O1 (stereo not given) : > 100 µM
13. CN(NC(=O)CC(=O)NN(C)C(=S)c1ccccc1)C(=S)c1ccccc1 : > 100 µM
14. OCC(O)C(O)C(O)C1SC(c2ccccc2)=NN1c1ccccc1 (stereo not given) : > 100 µM
15. Nc1ccccc1/C=C\c1ccccc1 : > 100 µM
16. O=C(Nc1ccc(-n2cc(-c3ccncc3)c(-c3ccc(O)c(Cl)c3)n2)cc1)c1cc(Cl)cc(Cl)c1 : > 32.5 µM
17. C=C1CC[C@@]2(C#N)[C@H]3[C@H](CC[C@@H]2C)[C@@H](C)C[C@@H](CC(C)(C)C#N)[C@H]13 : 44.2 µM
18. O=[N+]([O-])c1ccc(-c2nc(N(CCO)CCO)c3ccccc3n2)o1 : 2.41 µM
19. COc1c(C)c2c(c(O)c1C/C=C(\C)CCC(=O)OCCN1CCOCC1)C(=O)OC2 : > 100 µM
20. O=c1[nH]c(=S)c2cc3c(=S)[nH]c(=O)n(CCC(c4ccccc4)(c4ccccc4)c4ccccc4)c3nc2n1CCC(c1ccccc1)(c1ccccc1)c1ccccc1 : > 100 µM
